System tested: T1, CRBN, Q96SW2;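 also: pooled lentiviral library of zinc finger degron-EGFP fusions in mCherry-positive Jurkat cells, FACS-sorted after compound exposure, with degron abundance counted by next-generation sequencing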
T1 chain: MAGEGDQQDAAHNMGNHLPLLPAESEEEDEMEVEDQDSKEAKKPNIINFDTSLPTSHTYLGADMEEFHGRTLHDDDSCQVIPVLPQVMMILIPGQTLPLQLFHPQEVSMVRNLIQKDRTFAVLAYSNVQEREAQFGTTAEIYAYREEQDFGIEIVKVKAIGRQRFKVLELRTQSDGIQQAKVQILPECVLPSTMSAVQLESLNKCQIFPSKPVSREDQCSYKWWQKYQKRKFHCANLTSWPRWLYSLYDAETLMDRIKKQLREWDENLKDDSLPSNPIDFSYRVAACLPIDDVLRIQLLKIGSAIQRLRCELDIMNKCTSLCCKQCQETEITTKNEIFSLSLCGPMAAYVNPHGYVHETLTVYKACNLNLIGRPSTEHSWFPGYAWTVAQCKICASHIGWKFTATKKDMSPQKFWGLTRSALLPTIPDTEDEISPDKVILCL
Test description: log2 fold change of degron read counts, EGFP-low vs EGFP+ sorted cells (limma voom), compound-induced degradation; higher = more compound-induced degradation of the degron-EGFP fusion; degrons are variants of IKZF1/3 zinc finger 2; compound dose not given here
Conditions used: Jurkat; 18 h; compound: compound 33 (diphenyl IMiD analogue)
In all, about 8,300 sequences were measured (“log2 fold change of degron read counts, EGFP-low vs EGFP+ sorted cells (limma voom), compound-induced degradation”: median about -1.1, highest 2% from about 3.2 on). What follows is part of a selection rich in the highest values, with near analogues and random picks from the rest.
Lab note: anything with log2 fold change of degron read counts at or over 2 counts as label 1; the rest go in label 0.

residue_codes="LVCPICGFMCTQKGNLLRHIKL [46L_47V_49P_50I_52G_53F_54M_55C_67L_, Q9UKT9]" assigned_label="label 1"
residue_codes="LNCPICGFACTQKGNLLRHIKL [46L_47N_49P_50I_52G_53F_54A_55C_67L_, Q9UKT9]" assigned_label="label 0"

## Task Is log2 fold change of degron read counts at least 2? Consider LYCEICGFGCTQKGNLLRHIKL [46L_47Y_49E_50I_52G_53F_54G_55C_67L_, Q9UKT9]
## Result label 0

## Task Is log2 fold change of degron read counts at least 2? Consider LWCPICGFSCTQKGNLLRHIKL [46L_47W_49P_50I_52G_53F_54S_55C_67L_, Q9UKT9]
## Result label 1

## Task Is log2 fold change of degron read counts at least 2? Consider LWCPICGFECTQKGNLLRHIKL [46L_47W_49P_50I_52G_53F_54E_55C_67L_, Q9UKT9]
## Result label 1

## Task Is log2 fold change of degron read counts at least 2? Consider LTCPICGFECTQKGNLLRHIKL [46L_47T_49P_50I_52G_53F_54E_55C_67L_, Q9UKT9]
## Result label 0

## Task Is log2 fold change of degron read counts at least 2? Consider LECPICGFACTQKGNLLRHIKL [46L_47E_49P_50I_52G_53F_54A_55C_67L_, Q9UKT9]
## Result label 1

## Task Is log2 fold change of degron read counts at least 2? Consider LTCPICGFSCTQKGNLLRHIKL [46L_47T_49P_50I_52G_53F_54S_55C_67L_, Q9UKT9]
## Result label 1

## Task Is log2 fold change of degron read counts at least 2? Consider LQCPICGFSCTQKGNLLRHIKL [46L_47Q_49P_50I_52G_53F_54S_55C_67L_, Q9UKT9]
## Result label 1

## Task Is log2 fold change of degron read counts at least 2? Consider LYCPICGFACTQKGNLLRHIKL [46L_47Y_49P_50I_52G_53F_54A_55C_67L_, Q9UKT9]
## Result label 1

## Task Is log2 fold change of degron read counts at least 2? Consider LQCPICGFGCTQKGNLLRHIKL [46L_47Q_49P_50I_52G_53F_54G_55C_67L_, Q9UKT9]
## Result label 0

## Task Is log2 fold change of degron read counts at least 2? Consider LTCPICGFACTQKGNLLRHIKL [46L_47T_49P_50I_52G_53F_54A_55C_67L_, Q9UKT9]
## Result label 1
